target: T1, VEGF (human, UniProt P15692-4 27-191, limits assumed); experiment: competitive phage-ELISA, wt = pY0192
T1 construct: also called human VEGF; vascular endothelial growth factor
T1 sequence (P15692 other isoform, or with tags, fused parts or gaps limits assumed): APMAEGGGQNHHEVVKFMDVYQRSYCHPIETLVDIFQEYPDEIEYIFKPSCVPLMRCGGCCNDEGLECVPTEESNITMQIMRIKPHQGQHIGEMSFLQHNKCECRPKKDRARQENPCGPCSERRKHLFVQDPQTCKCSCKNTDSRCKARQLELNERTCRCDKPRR
Reported property: IC50 (mut) / IC50 (wt)
# print the numeric value only

Binder	Reported property	Value reported
pY0192 VH G33A (Fab, V domains shown) VH: EVQLVESGGGLVQPGGSLRLSCAASGYTFTNYAINWVRQAPGKGLEWVGWINTYTGEPTYAADFKRRFTFSLDTSKSTAYLQMNSLRAEDTAVYYCAKYPHYYGSSHWYFDVWGQGTL VL: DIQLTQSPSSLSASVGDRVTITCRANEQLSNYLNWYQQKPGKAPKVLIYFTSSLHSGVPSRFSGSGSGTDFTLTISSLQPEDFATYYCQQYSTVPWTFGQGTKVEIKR	IC50 (mut) / IC50 (wt)	6

## Task Dear colleague, I am looking for the recorded IC50 (mut) / IC50 (wt) of the following binder: pY0192 VH I51A (Fab, V domains shown) VH: EVQLVESGGGLVQPGGSLRLSCAASGYTFTNYGINWVRQAPGKGLEWVGWANTYTGEPTYAADFKRRFTFSLDTSKSTAYLQMNSLRAEDTAVYYCAKYPHYYGSSHWYFDVWGQGTL VL: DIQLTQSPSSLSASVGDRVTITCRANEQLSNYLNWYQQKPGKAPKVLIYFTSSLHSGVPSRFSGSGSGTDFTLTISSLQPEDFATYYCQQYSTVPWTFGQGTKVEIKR
## Result 4
